- Tested on: human myelomonocytic, biphenotypic leukemia MV4-11 cells
- assay info: Growth inhibition test (MTS) on MV4-11 cells
- Assay type: cell-based
- experimental setup: Homo sapiens, MV4-11, 72 hours, read-out: MV-4-11 ED50
- Excerpt: Ten thousand cells of human myelomonocytic, biphenotypic leukemia MV4-11 were inoculated into each well of a 96-well microplate (manufactured by Corning Corp.) using Iscove's MDM medium (culture medium) containing 10% fetal calf serum (FCS). […]
reported endpoint: IC50 (µM)

>>> observed_measurement("Brc1cccc(Nc2nc3c(Br)c(Br)c(Br)c(Br)c3[nH]2)c1")
1.6

P = Brc1c(Br)c(Br)c2[nH]c(NCCN3CCN(c4ncccn4)CC3)nc2c1Br
Q = CC(C)NC1CCCCC1Nc1nc2c(Br)c(Br)c(Br)c(Br)c2[nH]1 (stereo not drawn)
Exercise: Problem: Given the entries P and Q , determine which has the lower reported IC50. Use the label to indicate which entry you chose.
Solution: Q

a = C[C@@H]1CN(c2nc3c(Br)c(Br)c(Br)c(Br)c3[nH]2)[C@@H](C)CN1
b = Brc1c(Br)c(Br)c2[nH]c(NC3CCCNCC3)nc2c1Br (stereo not drawn)
Exercise: Problem: Given the entries a and b , determine which has the lower reported IC50. Use the label to indicate which entry you chose.
Solution: b
(b: 0.6 µM, a: 1.97 µM)

I = NCc1ccccc1CNc1nc2c(Br)c(Br)c(Br)c(Br)c2[nH]1
II = N=C(N)N1CCN(c2nc3c(Br)c(Br)c(Br)c(Br)c3[nH]2)CC1
Exercise: Could you please tell me which of these two has the higher IC50: I or II ? Use the label to indicate which entry you chose.
Solution: II

a = Brc1c(Br)c(Br)c2[nH]c(N3CCNc4ccccc43)nc2c1Br
b = Brc1c(Br)c(Br)c2[nH]c(N[C@H]3COC[C@@H]3N3CCCC3)nc2c1Br
Exercise: Problem: Given the entries a and b , determine which has the lower reported IC50. Use the label to indicate which entry you chose.
Solution: b

----------
- Tested on: human prostate adenocarcinoma PC3 cells
- assay info: Growth inhibition test (MTS) on PC3 cells
- Format: cell-based
- experimental setup: Homo sapiens, PC-3, 72 hours, read-out: PC-3 ED50
reported endpoint: IC50 (µM)

Solved cases below.
>>> observed_measurement("NCCCNc1nc2c(Br)c(Br)c(Br)c(Br)c2[nH]1")
4.9
>>> observed_measurement("NCc1ccccc1CNc1nc2c(Br)c(Br)c(Br)c(Br)c2[nH]1")
4.7
>>> observed_measurement("CCCn1c(N2CCNCC2)nc2c(Br)c(Br)c(Br)c(Br)c21")
2.57
>>> observed_measurement("Brc1c(Br)c(Br)c2[nH]c(NCCN3CCCC3)nc2c1Br")
3.96
>>> observed_measurement("CN(C)C1CCCN(c2nc3c(Br)c(Br)c(Br)c(Br)c3[nH]2)C1 (stereo not drawn)")
6.66
>>> observed_measurement("NCc1cccc(CNc2nc3c(Br)c(Br)c(Br)c(Br)c3[nH]2)c1")
8.59

A = CC(C)n1c(N2CCNCC2)nc2c(Br)c(Br)c(Br)c(Br)c21
B = N[C@H]1CCCC[C@H]1Nc1nc2c(Br)c(Br)c(Br)c(Br)c2[nH]1 (relative stereo) [Compound 304cis]
C = Brc1c(Br)c(Br)c2[nH]c(NCCCn3ccnc3)nc2c1Br
Exercise: Put the entries in order of IC50, starting with the largest number. Could you list the labels in the order requested?
Solution: C, A, B
(C: 7.45 µM, A: 2.95 µM, B: 1.47 µM)

A = Fc1ccc(CNc2nc3c(Br)c(Br)c(Br)c(Br)c3[nH]2)cc1F
B = CCCCCNC1CCCCC1Nc1nc2c(Br)c(Br)c(Br)c(Br)c2[nH]1 (stereo not drawn)
Exercise: Problem: Given the entries A and B , determine which has the lower reported IC50. Use the label to indicate which entry you chose.
Solution: B

P = Brc1c(Br)c(Br)c2[nH]c(NC3CCNCC3)nc2c1Br
Q = Brc1c(Br)c(Br)c2[nH]c(N[C@H]3COC[C@@H]3N3CCCC3)nc2c1Br
Exercise: Could you please tell me which of these two has the higher IC50: P or Q ? Use the label to indicate which entry you chose.
Solution: P
(P: 5.79 µM, Q: 3.83 µM)

I = Brc1c(Br)c(Br)c2[nH]c(Nc3ccccn3)nc2c1Br
II = Nc1ccccc1Nc1nc2c(Br)c(Br)c(Br)c(Br)c2[nH]1
Exercise: Problem: Given the entries I and II , determine which has the lower reported IC50. Use the label to indicate which entry you chose.
Solution: I
